system: Porcine atria myofibrils (atrial myosin ATPase); test: Myofibril ATPase assay, porcine atria myofibrils; type: biochemical; settings: Y75 value (no ‡ mark); porcine atria myofibrils
measurement type: Atrial EC25
Value and unit, in that order.

Reference set (4 entries):
- Cc1c(CC(=O)N[C@H](C)c2cnc(C#N)nc2)c(=O)[nH]c2cc(F)c(F)cc12 (single isomer, unassigned) [compound 2074]: 9.01 µM
- Cc1c(C(F)(F)C(=O)N[C@H](C)c2cc(C#N)ccn2)c(=O)[nH]c2ccc(F)c(F)c12 (single isomer, unassigned) [compound 2585]: 1.59 µM
- Cc1cc(C#N)cnc1[C@H](C)NC(=O)Cc1c(O)c2c(C)c(F)ccc2[nH]c1=O [compound 1121]: 100.00 µM
- C[C@@H](NC(=O)Cc1cc2c(F)cccc2[nH]c1=O)c1ccc(C#N)cn1 [compound 47]: 4.48 µM

Please give the documented Atrial EC25 of Cc1c(CC(=O)N[C@H]2COc3cc(C#N)cnc32)c(=O)[nH]c2ccc(F)cc12 [compound 1063]
0.16 µM

Note down Atrial EC25 recorded for Cc1c(CC(=O)N[C@@H](C)c2ccc(C#N)cn2)c(=O)[nH]c2cc(F)ccc12 [compound 1073]
53.69 µM

Note Atrial EC25 for the molecule shown: Cc1c(CC(=O)N[C@H](C)c2ncc(C#N)cc2F)c(=O)[nH]c2cccc(F)c12 [compound 51]
0.23 µM

Report Atrial EC25 for Cc1c(CC(=O)N[C@@H](C)c2ccc(F)cc2F)c(=O)[nH]c2ccc(F)c(F)c12 [compound 116]
0.04 µM

====

This listing pairs molecules with measured Ventricular EC25.
molecular target: Porcine ventricle myofibrils (ventricular myosin ATPase) (Sus scrofa, UniProt P79293); construct: Myofibrils from porcine cardiac muscle was isolated from the left ventricle of Yucatan minipigs; tissue Exemplar Genetics; host or cells: left ventricle of Yucatan minipigs, myofibrils prepared in house; assay: Myofibril ATPase assay, porcine ventricle myofibrils; format: biochemical, porcine (Yucatan minipigs); details: porcine ventricle myofibrils; Y75 value
Sequence (P79293 whole entry): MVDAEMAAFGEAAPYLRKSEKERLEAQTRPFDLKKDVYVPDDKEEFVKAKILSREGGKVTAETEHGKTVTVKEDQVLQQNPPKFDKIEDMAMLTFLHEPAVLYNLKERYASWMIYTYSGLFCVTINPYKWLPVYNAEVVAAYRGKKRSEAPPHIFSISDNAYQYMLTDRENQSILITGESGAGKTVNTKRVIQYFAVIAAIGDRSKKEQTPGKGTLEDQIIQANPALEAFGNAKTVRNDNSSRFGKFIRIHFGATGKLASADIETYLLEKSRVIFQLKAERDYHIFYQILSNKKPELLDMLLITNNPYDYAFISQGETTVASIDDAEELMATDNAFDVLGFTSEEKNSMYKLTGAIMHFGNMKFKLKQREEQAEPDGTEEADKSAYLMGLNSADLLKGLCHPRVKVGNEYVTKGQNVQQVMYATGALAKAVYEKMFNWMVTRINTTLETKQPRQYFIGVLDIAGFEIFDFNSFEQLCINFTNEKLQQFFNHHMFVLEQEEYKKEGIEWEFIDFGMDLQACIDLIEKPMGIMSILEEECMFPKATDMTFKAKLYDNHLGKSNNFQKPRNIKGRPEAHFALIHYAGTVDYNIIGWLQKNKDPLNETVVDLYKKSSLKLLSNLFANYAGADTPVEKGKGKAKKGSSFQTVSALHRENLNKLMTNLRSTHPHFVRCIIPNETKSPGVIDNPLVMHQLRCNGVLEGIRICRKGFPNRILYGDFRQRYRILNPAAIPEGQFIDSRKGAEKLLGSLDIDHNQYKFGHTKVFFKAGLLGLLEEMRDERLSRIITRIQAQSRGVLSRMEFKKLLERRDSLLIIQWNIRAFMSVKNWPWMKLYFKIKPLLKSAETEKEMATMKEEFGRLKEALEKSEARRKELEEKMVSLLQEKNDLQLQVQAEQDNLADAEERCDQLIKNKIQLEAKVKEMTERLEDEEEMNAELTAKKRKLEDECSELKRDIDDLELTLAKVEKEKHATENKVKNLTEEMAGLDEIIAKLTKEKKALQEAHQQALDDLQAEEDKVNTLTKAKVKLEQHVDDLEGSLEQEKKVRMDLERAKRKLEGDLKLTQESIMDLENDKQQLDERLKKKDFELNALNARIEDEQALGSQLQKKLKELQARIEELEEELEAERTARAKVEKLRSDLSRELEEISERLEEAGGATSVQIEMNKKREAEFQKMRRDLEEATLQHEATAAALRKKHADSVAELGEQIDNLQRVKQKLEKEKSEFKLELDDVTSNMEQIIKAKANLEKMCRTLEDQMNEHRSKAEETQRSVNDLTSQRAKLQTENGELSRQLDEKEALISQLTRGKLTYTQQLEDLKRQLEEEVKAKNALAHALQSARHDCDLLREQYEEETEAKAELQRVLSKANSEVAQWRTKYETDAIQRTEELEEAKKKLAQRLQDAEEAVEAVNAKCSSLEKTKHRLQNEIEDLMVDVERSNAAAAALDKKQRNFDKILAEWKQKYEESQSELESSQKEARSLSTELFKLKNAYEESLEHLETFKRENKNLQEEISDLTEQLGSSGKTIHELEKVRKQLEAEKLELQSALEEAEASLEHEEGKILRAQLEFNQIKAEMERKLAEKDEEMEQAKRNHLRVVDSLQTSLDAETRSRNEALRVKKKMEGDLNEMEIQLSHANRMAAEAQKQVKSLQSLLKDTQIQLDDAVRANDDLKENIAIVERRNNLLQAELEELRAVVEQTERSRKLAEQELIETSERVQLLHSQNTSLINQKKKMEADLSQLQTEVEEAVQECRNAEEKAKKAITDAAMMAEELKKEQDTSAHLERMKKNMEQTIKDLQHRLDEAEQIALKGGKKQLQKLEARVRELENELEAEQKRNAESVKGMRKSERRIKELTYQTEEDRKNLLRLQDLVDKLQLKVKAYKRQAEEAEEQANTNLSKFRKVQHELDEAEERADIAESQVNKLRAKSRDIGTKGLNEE

• Cc1nccc2[nH]c(=O)c(CC(=O)N[C@H](C)c3ncccc3F)c(C)c12 (single isomer, unassigned) [compound 267] = 100.00 µM
• Cc1c(CC(=O)N[C@@H](C)c2ccc(F)cc2F)c(=O)[nH]c2ccnnc12 [compound 418] = 48.43 µM
• Cc1nc(C#N)ncc1[C@@H](C)NC(=O)Cc1c(C)c2c(C)nccc2[nH]c1=O [compound 464] = 0.18 µM
• Cc1nccc2[nH]c(=O)c(C(F)(F)C(=O)N[C@H](C)c3ccc(C#N)cc3F)c(C)c12 (single isomer, unassigned) [compound 3511] = 2.65 µM
• Cc1ccc2[nH]c(=O)c(CC(=O)N[C@@H](C)c3ncc(C#N)cc3F)cc2n1 [compound 463] = 26.99 µM

Recall and state the measured Ventricular EC25 for Cc1c([C@@H](C)C(=O)N[C@@H](C)c2ccc(F)cc2F)c(=O)[nH]c2ccc(C(F)(F)F)nc12 (single isomer, unassigned) [compound 370] .
48.16 µM

Name the recorded Ventricular EC25 of the molecule listed here: Cc1c(CC(=O)N[C@@H]2COc3cc(F)cc(F)c32)c(=O)[nH]c2ccnc(C#N)c12 (single isomer, unassigned) [compound 273]
4.08 µM

Give the reported Ventricular EC25 for this molecule. C[C@H](NC(=O)Cc1c(C2CC2)c2cnccc2[nH]c1=O)c1ccc(F)cc1F [compound 444]
20.82 µM

Give the value of Ventricular EC25 reported for the following: Cc1c(CC(=O)N[C@@H](C)c2ccc(C#N)cc2F)c(=O)[nH]c2ccnc(C#N)c12 (single isomer, unassigned) [compound 283]
0.10 µM

Tell me Ventricular EC25 reported for Cc1nccc2[nH]c(=O)c([C@@H](C)C(=O)N[C@@H](C)c3ccc(C#N)cc3F)c(C)c12 (single isomer, unassigned) [compound 195]
2.97 µM

Fill in Ventricular EC25 for record C[C@H](NC(=O)[C@H](C)c1cc2c(C#N)nccc2[nH]c1=O)c1ccc(F)cc1F (single isomer, unassigned) [compound 360]
100.00 µM

Kindly indicate its recorded Ventricular EC25. Item: Cc1cccc([C@H](C)NC(=O)Cc2c(C)c3c(C)nccc3[nH]c2=O)c1 (single isomer, unassigned) [compound 340]
100.00 µM

Give Ventricular EC25 for C[C@H](NC(=O)[C@H](C)c1cc2c(C3CC3)nccc2[nH]c1=O)c1ccc(F)cc1F (single isomer, unassigned) [compound 3506]
100.00 µM

Find the measured Ventricular EC25 of Cc1ccc([C@@H](C)NC(=O)Cc2c(C)c3c(C)nccc3[nH]c2=O)cc1 (single isomer, unassigned) [compound 301] and report it.
100.00 µM

Give the reported value of Ventricular EC25 for this record: Cc1nccc2[nH]c(=O)c(CC(=O)N[C@@H](C)c3cccnc3O)c(C)c12 (single isomer, unassigned) [compound 307]
100.00 µM

Using the record for Cc1c(CC(=O)N[C@H](C)c2ccc(C#N)cn2)c(=O)[nH]c2ccc(C(F)(F)F)nc12 [compound 459] , state its measured Ventricular EC25.
100.00 µM

Please give the documented Ventricular EC25 of CC#Cc1nccc2[nH]c(=O)c(CC(=O)N[C@@H](C)c3ccc(F)cc3F)c(C)c12 [compound 350]
1.99 µM

Indicate the recorded Ventricular EC25 value for this molecule: Cc1nccc2[nH]c(=O)c(CC(=O)N[C@H](c3ccc(F)cc3F)C(C)(C)O)c(C)c12 (single isomer, unassigned) [compound 272]
100.00 µM

Annotate the molecule Cc1nccc2[nH]c(=O)c(CC(=O)N[C@@H]3COc4cc(C#N)cc(F)c43)c(C)c12 (single isomer, unassigned) [compound 177] with its measured Ventricular EC25.
0.09 µM
